- target of assay: canine TRPM8 (Canis lupus familiaris, UniProt Q1A7N1)
- Sequence (Q1A7N1 1-1104): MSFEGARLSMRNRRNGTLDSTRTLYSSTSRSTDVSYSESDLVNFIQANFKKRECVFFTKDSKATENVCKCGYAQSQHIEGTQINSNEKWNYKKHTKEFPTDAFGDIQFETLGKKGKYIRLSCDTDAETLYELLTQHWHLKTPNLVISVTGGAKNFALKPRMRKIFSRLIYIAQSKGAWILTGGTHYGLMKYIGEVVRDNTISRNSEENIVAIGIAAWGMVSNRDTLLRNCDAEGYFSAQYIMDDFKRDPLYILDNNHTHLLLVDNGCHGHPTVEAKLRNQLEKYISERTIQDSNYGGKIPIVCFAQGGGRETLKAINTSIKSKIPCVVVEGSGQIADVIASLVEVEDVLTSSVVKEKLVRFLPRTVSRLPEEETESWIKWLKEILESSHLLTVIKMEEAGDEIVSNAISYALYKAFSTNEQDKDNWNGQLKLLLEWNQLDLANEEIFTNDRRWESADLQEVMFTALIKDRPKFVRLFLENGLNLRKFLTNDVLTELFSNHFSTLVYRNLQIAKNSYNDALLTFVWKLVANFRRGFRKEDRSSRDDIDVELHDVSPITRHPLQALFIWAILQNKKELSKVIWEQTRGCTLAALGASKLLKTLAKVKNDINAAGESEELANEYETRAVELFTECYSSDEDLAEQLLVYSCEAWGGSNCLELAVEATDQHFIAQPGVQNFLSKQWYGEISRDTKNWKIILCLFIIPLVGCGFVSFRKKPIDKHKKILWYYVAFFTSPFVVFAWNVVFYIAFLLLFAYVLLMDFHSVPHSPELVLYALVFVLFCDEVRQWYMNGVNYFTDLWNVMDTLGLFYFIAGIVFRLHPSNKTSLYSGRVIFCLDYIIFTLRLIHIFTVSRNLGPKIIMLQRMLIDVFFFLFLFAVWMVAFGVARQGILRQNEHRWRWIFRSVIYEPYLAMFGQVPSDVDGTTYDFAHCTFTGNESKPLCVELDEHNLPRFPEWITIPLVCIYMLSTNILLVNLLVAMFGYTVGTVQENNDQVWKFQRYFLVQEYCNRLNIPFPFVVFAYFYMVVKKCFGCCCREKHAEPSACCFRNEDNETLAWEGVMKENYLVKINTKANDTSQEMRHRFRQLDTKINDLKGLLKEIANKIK
- assay info: In Vitro Canine TRPM8 Functional Assay (intracellular Ca2+ fluorescence, icilin challenge)
- Assay type: cell-based
- stated conditions: HEK293, @ 0.2 μM; HEK293 cells stably expressing canine TRPM8; read-out: % Inh (%) @ 0.2 μM
Quick list: inhibition at 0.2 µM per entry.
Answer format: numeric, % implied, no suffix.

// worked examples, inhibition at 0.2 µM included
- input smiles: "Cc1c(N(Cc2ccc(C(F)(F)F)c(F)c2)S(=O)(=O)c2ccccc2)nc2cc(C(F)(F)F)ccn12"
  inhibition at 0.2 µM / %: 22
- input smiles: "CCc1c(N(CCCCC(F)(F)F)S(=O)(=O)c2ccccc2)nc2c(C(F)(F)F)cccn12"
  inhibition at 0.2 µM / %: 99
- input smiles: "Cc1ccn2c(C)c(N(Cc3ccc(OC(F)(F)F)cc3)S(=O)(=O)c3ccc(F)cc3)nc2c1"
  inhibition at 0.2 µM / %: 96

Now let's try a different one.
Readout inhibition at 0.2 µM for `O=S(=O)(c1ccccc1)N(Cc1ccc(C(F)(F)F)c(F)c1)c1nc2ccccn2c1C1CC1` , test system canine TRPM8 (Canis lupus familiaris, UniProt Q1A7N1), was 101

* * *

- target of assay: canine TRPM8 (Canis lupus familiaris)
- assay info: In Vitro Canine TRPM8 Functional Assay (intracellular Ca2+ fluorescence, icilin challenge)
- Type: cell-based
- stated conditions: HEK293, @ 0.2 μM; HEK293 cells stably expressing canine TRPM8; read-out: % Inh (%) @ 0.2 μM
measured parameter: inhibition at 0.2 µM (%)
Kindly provide the numeric value in % only, without the unit symbol.

Recorded inhibition at 0.2 µM, per entry:
- input smiles: "O=S(=O)(c1ccc(N2CCOCC2)nc1)N(Cc1ccccc1)c1nc2ccccn2c1Br"
  unit of measure: "%"
  inhibition at 0.2 µM: 87
- input smiles: "CC(C)c1c(N(Cc2cccc(C(F)(F)F)c2)S(=O)(=O)c2ccccc2)nc2ccccn12"
  unit of measure: "%"
  inhibition at 0.2 µM: 101

Form field inhibition at 0.2 µM, entry `CCc1c(N(CCC2CC2)S(=O)(=O)c2ccccc2)nc2c(C(F)(F)F)cccn12` : 99

Lookup result for `O=S(=O)(c1ccccc1)N(Cc1ccc(C(F)(F)F)cc1)c1nc2ccccn2c1C1CC1` ; measured inhibition at 0.2 µM: 101

inhibition at 0.2 µM recorded for this compound, `COC(=O)c1ccc(S(=O)(=O)N(Cc2ccc(F)c(C(F)(F)F)c2)c2nc3ccc(F)cn3c2C)cc1` , is 100

Looking up `O=S(=O)(c1ccc(N2CCOCC2)nc1)N(Cc1ccc(F)c(C(F)(F)F)c1)c1nc2ccccn2c1Br` , I see its inhibition at 0.2 µM listed as 99

Entry `CCc1c(N(Cc2ccc(C(F)(F)F)cc2)S(=O)(=O)c2ccccc2)nc2c(C(F)(F)F)cccn12` ; inhibition at 0.2 µM = 87

* * *

- target of assay: canine TRPM8 (Canis lupus familiaris)
- assay info: In Vitro Canine TRPM8 Functional Assay (intracellular Ca2+ fluorescence, icilin challenge)
- Format: cell-based
- stated conditions: HEK293, @ 0.2 μM; HEK293 cells stably expressing canine TRPM8; read-out: % Inh (%) @ 0.2 μM
Below, each entry is listed alongside its reported inhibition at 0.2 µM.
Respond with the bare value in %.

- input smiles: "Cc1c(N(Cc2cccc(OC(F)(F)F)c2)S(=O)(=O)c2ccccc2)nc2ccc(Cl)cn12"
  target of assay: "canine TRPM8 (Canis lupus familiaris)"
  inhibition at 0.2 µM [%]: 99
- input smiles: "Cc1ccc2nc(N(Cc3ccc(F)c(C(F)(F)F)c3)S(=O)(=O)c3ccccc3)c(C)n2c1"
  target of assay: "canine TRPM8 (Canis lupus familiaris)"
  inhibition at 0.2 µM [%]: 100
- input smiles: "O=S(=O)(c1ccc(-n2cccn2)cc1)N(Cc1ccc(C(F)(F)F)cc1)c1nc2ccccn2c1Cl"
  target of assay: "canine TRPM8 (Canis lupus familiaris)"
  inhibition at 0.2 µM [%]: 99
- input smiles: "Cc1c(N(Cc2ccc(C(F)(F)F)c(F)c2)S(=O)(=O)c2ccc(-n3cccn3)cc2)nc2ccc(Cl)cn12"
  target of assay: "canine TRPM8 (Canis lupus familiaris)"
  inhibition at 0.2 µM [%]: 98
- input smiles: "Cc1c(N(Cc2ccc(C(F)(F)F)cc2)S(=O)(=O)c2ccccc2)nc2ccc(Cl)cn12"
  target of assay: "canine TRPM8 (Canis lupus familiaris)"
  inhibition at 0.2 µM [%]: 99
- input smiles: "Cc1c(N(Cc2ccc(F)c(C(F)(F)F)c2)S(C)(=O)=O)nc2ccc(F)cn12"
  target of assay: "canine TRPM8 (Canis lupus familiaris)"
  inhibition at 0.2 µM [%]: 58
- input smiles: "COC(=O)c1ccc(S(=O)(=O)N(Cc2ccc(OC(F)(F)F)cc2)c2nc3ccc(Cl)cn3c2C)cc1"
  target of assay: "canine TRPM8 (Canis lupus familiaris)"
  inhibition at 0.2 µM [%]: 82
- input smiles: "CCc1c(N(CC2CC2)S(=O)(=O)c2ccccc2)nc2c(C(F)(F)F)cccn12"
  target of assay: "canine TRPM8 (Canis lupus familiaris)"
  inhibition at 0.2 µM [%]: 72
- input smiles: "COC(=O)c1ccc(S(=O)(=O)N(Cc2ccc(OC(F)(F)F)cc2)c2nc3ccc(F)cn3c2C)cc1"
  target of assay: "canine TRPM8 (Canis lupus familiaris)"
  inhibition at 0.2 µM [%]: 100
- input smiles: "Cc1c(N(Cc2ccc(C(F)(F)F)c(F)c2)S(=O)(=O)c2ccccc2)nc2ccc(C(F)(F)F)cn12"
  target of assay: "canine TRPM8 (Canis lupus familiaris)"
  inhibition at 0.2 µM [%]: 31

Form field inhibition at 0.2 µM, entry `O=S(=O)(c1ccc(N2CCOCC2)nc1)N(Cc1ccc(F)c(C(F)(F)F)c1)c1nc2ccccn2c1Cl` : 99

Record `CC(C)c1c(N(Cc2ccc(C(F)(F)F)cc2)S(=O)(=O)c2ccccc2)nc2ccccn12` , field inhibition at 0.2 µM: 101

Entry `Cc1c(N(Cc2ccc(C(F)(F)F)cc2)S(=O)(=O)c2ccc(-n3cccn3)cc2)nc2ccc(Cl)cn12` — recorded inhibition at 0.2 µM = 98

The compound listed as `Cc1c(N(Cc2ccc(C(F)(F)F)c(F)c2)S(=O)(=O)c2ccccc2)nc2ccc(Cl)cn12` has a reported inhibition at 0.2 µM of 100

Looking up `COC(=O)c1ccc(S(=O)(=O)N(Cc2ccc(F)c(C(F)(F)F)c2)c2nc3ccc(Cl)cn3c2C)cc1` , I found its inhibition at 0.2 µM recorded as 83

Form: compound = `O=S(=O)(c1ccccc1)N(Cc1ccc(F)c(C(F)(F)F)c1)c1nc2ccc(C(F)(F)F)cn2c1Cl` ; inhibition at 0.2 µM = 56

The recorded inhibition at 0.2 µM for `O=S(=O)(c1ccc(N2CCOCC2)nc1)N(Cc1ccc(C(F)(F)F)c(F)c1)c1nc2ccccn2c1Br` is 100
